Molecular target: human wildtype CFTR (Homo sapiens, UniProt P13569)
Sequence (P13569 whole entry): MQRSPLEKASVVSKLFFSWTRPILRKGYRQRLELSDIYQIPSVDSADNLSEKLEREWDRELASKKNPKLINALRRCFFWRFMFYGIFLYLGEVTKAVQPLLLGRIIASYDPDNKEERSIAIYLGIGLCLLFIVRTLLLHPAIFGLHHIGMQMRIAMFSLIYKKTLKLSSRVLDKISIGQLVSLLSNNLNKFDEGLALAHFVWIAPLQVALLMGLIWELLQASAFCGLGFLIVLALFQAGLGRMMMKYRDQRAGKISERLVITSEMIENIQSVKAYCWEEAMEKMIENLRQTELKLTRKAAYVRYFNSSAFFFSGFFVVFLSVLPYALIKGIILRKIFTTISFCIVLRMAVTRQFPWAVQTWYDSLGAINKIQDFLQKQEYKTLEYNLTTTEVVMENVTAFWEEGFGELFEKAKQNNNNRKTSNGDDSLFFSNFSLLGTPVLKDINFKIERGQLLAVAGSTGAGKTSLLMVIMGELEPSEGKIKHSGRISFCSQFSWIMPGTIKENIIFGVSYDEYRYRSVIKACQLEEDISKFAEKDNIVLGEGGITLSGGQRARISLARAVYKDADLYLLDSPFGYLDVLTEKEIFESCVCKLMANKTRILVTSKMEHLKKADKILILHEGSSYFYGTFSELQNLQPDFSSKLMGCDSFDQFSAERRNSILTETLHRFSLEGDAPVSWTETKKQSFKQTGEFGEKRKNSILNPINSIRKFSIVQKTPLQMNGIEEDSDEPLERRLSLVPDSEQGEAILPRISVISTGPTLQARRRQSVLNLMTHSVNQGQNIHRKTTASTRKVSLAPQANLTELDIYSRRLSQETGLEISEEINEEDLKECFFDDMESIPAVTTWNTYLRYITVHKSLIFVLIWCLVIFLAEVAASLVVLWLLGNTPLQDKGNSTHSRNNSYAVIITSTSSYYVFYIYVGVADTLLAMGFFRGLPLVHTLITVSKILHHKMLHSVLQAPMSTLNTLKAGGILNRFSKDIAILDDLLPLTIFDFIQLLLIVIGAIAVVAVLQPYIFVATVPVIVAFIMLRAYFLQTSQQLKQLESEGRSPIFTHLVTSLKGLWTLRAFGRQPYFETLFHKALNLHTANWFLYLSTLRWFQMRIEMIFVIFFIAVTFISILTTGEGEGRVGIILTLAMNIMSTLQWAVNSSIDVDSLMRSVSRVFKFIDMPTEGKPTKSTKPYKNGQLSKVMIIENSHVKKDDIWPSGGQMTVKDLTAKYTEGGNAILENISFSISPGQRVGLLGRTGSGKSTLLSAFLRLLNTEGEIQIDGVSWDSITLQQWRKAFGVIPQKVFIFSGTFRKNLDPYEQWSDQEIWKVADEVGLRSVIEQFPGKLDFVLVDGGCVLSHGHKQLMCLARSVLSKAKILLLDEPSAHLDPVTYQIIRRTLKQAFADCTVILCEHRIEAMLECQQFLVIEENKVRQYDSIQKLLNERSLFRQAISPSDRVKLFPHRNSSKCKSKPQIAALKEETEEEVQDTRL
Assay: Fluorescence plate reader assay of iodide influx in FRT cells co-expressing CFTR and YFP halide sensor
Details: read-out: EC50, variation in the 3-aryl ring; plate reader assay
# EC50 annotations

# COMPOUND, UNIT_OF_MEASURE, EC50
data = [
    ("O=c1c(-c2ccccc2[N+](=O)[O-])nc2ccccc2n1Cc1ccccc1 [Compound 1d]", "nM", 1000),
    ("O=c1c(-c2ccc3nonc3c2)nc2ccccc2n1Cc1ccccc1 [Compound 1m]", "nM", 18),
    ("O=c1c(-c2ccc(F)c([N+](=O)[O-])c2)nc2ccccc2n1Cc1ccccc1 [Compound 1i]", "nM", 690),
    ("COC(=O)c1ccc(N)c(-c2nc3ccccc3n(Cc3ccccc3)c2=O)c1 [Compound 1j]", "nM", 550),
    ("O=c1c(-c2cccc([N+](=O)[O-])c2)nc2ccccc2n1Cc1ccccc1 [Compound 1c]", "nM", 9),
]

---

Target: human wildtype CFTR (Homo sapiens, UniProt P13569)
Experiment: Fluorescence plate reader assay of iodide influx in FRT cells co-expressing CFTR and YFP halide sensor
Listed next: entries and their corresponding EC50.

# STRUCTURE, CENSOR_SYMBOL, EC50 (µM)
data = [
    ("Nc1ccc(Br)cc1-c1nc2ccccc2n(Cc2ccccc2)c1=O", "=", 0.31),
    ("Nc1ccc([N+](=O)[O-])cc1-c1nc2ccccc2n(Cc2ccc(Br)cc2)c1=O", ">", 25),
    ("Nc1cccc(Br)c1-c1nc2ccccc2n(Cc2ccccc2)c1=O", "=", 1.5),
    ("Fc1ccc2nc3n(Cc4ccccc4)c4ccc(C(F)(F)F)cc4nc-3c2c1", ">", 10),
]

---

Target: human wildtype CFTR (Homo sapiens)
Experiment: Fluorescence plate reader assay of iodide influx in FRT cells co-expressing CFTR and YFP halide sensor
Details: read-out: EC50, variation in the quinoxalinone core; plate reader assay
Catalogue of EC50 readings, one per entry.

# STRUCTURE, EC50 (nM)
data = [
    ("O=c1c(-c2cccc([N+](=O)[O-])c2)nc2cc(Cl)ccc2n1Cc1ccccc1", 70),
    ("O=c1c(-c2cccc([N+](=O)[O-])c2)nc2ccc(Cl)cc2n1Cc1ccccc1", 760),
    ("O=c1c(-c2cccc([N+](=O)[O-])c2)nc2cc(Br)ccc2n1Cc1ccccc1", 63),
    ("O=c1c(-c2cccc([N+](=O)[O-])c2)nc2c(Cl)cccc2n1Cc1ccccc1", 110),
]

---

Target: human wildtype CFTR (Homo sapiens)
Experiment: Fluorescence plate reader assay of iodide influx in FRT cells co-expressing CFTR and YFP halide sensor
pEC50: −log10 of the molar value.
Measured pEC50 by item
METRIC: pEC50

# COMPOUND, METRIC, VALUE_OBSERVED
measured = [
    ("COC(=O)c1ccc(N)c(-c2nc3ccccc3n(Cc3ccccc3)c2=O)c1 [Compound 1j]", "pEC50", 6.00),
    ("Cc1ccc2c(c1)nc(-c1cc(F)ccc1N)c(=O)n2Cc1ccccc1 [CFTRact-J140]", "pEC50", 6.15),
]
